Source: ChEMBL document CHEMBL3433997

target: Glucose transporter (Leishmania mexicana); experiment: ST_JUDE_LEISH: Cytotoxicity at 2uM final concentration against transgenic Leishmania Mexicana promastigotes LmGT2 that are glucose transport deficient and complemented with the L. Mexicana glucose transporter 2. Activity is measured by DNA content using SYBR green in vitro; assay type: functional
The compounds listed here are annotated with their inhibition.

{"columns": ["compound", "inhibition, %"],
 "data": [
  ["CC(C)C[C@H](NC(=O)c1cc2ccccc2s1)C(=O)N[C@H]1CCN(Cc2ccc(OC[C@@H]3CCCN3C)c3ccccc23)C1", 2.71],
  ["Nc1ncc(-c2cn[nH]c2)cc1-c1nc2cc(Cl)cnc2[nH]1", 1.93],
  ["COc1cccc(NC(=O)Nc2cc(-c3ccc4[nH]ncc4c3)cc3c2CNC3=O)c1", 1.68],
  ["CN1CCc2cc(NS(=O)(=O)c3ccc(-c4ccc(Cl)cc4)cc3)c(OCCCN3CCCCC3)cc2CC1", 0.92],
  ["O=C(Nc1cc(Cl)cc(Cl)c1)c1cnn(-c2ccc(F)cc2)c1C1CCNCC1", 1.72],
  ["N=C(N)CCN(Cc1ccc(Cl)cc1)c1ccc(Cl)cc1", 0.65],
  ["CCCN1CCN(CCCCNc2c3ccccc3nc3ccccc23)CC1", 27.7],
  ["O=C(Nc1ccc(CN2CCOCC2)cc1)c1ccc(-c2ccc(Br)cc2)o1", -2.23],
  ["COC(=O)C(c1ccc(NC(=O)[C@H](CC(C)C)NC(=O)OC(C)(C)C)cc1)c1ccc(NC(=O)[C@H](CC(C)C)NC(=O)OC(C)(C)C)cc1", 0.27],
  ["COc1ccc2c(NN=Cc3ccccc3F)ccnc2c1", 2.7],
  ["CN1CCC(NCc2ccc(-c3ccc(S(=O)(=O)NCc4ccccc4)s3)cc2)CC1", 4.55],
  ["Cc1ncccc1C(=O)Nc1cccc(-c2cccc(-c3nc4cccc(C)c4[nH]3)c2)c1", 1.05],
  ["CCNc1cc(C(=O)N[C@@H](Cc2cccc(Cl)c2)[C@H](O)CNC(C)CCCC(C)C)cc(N2CCCCS2(=O)=O)c1 (stereo not given in full)", -4.25],
  ["CNc1cc(-c2ccc3ccnc(N)c3c2)nc(N)n1", -3.58],
  ["COc1ccc2c(c1)[nH]c1c(C=Cc3ccccc3)nccc12", 3.77],
  ["O=C(NC1CCN(Cc2ccccc2)CC1)c1cccc(-c2nc3ccc(Cl)cc3[nH]2)c1", 2.94],
  ["N#Cc1ccc(CCNc2nccc(-c3cccc(CN4CCNCC4)c3)n2)cc1", 6.7],
  ["CCc1nc(N)nc(N)c1-c1ccc2c(c1)CCCC2", 2],
  ["OCCN1CCN(Cc2ccc(-c3cccc(-c4nc5cc(C(F)(F)F)ccc5[nH]4)c3)cc2)CC1", 7.33],
  ["COc1cc2c(cc1C(F)(F)F)N(C(=O)Nc1cc(Br)cc(-c3cccnc3)c1)CC2", 6.18]
]}
